Recorded values, source ChEMBL document CHEMBL4706768.

Test: Volume of distribution at steady state in dog at 0.8 mg/kg, iv
Format: ADME, organism-based, Canis lupus familiaris
Conditions: in vivo, read-out: Vdss
ASSAY_ENDPOINT: Vd

- Cn1cc(Nc2nn3c(C(F)(F)c4ccc5ncccc5c4)nnc3s2)cn1: 1.6 L/kg

====

Experiment: Inhibition of GSK3 (unknown origin)
Set-up: species or system Homo sapiens
pKi: −log10 of the molar value.
ASSAY_ENDPOINT: pKi

* C[C@@H](c1ccc2ncccc2c1)c1nnc2sc(-c3cnn(C)c3)nn12 | < 5.40

====

Target: UniProt P35968
Sequence (P35968 whole entry): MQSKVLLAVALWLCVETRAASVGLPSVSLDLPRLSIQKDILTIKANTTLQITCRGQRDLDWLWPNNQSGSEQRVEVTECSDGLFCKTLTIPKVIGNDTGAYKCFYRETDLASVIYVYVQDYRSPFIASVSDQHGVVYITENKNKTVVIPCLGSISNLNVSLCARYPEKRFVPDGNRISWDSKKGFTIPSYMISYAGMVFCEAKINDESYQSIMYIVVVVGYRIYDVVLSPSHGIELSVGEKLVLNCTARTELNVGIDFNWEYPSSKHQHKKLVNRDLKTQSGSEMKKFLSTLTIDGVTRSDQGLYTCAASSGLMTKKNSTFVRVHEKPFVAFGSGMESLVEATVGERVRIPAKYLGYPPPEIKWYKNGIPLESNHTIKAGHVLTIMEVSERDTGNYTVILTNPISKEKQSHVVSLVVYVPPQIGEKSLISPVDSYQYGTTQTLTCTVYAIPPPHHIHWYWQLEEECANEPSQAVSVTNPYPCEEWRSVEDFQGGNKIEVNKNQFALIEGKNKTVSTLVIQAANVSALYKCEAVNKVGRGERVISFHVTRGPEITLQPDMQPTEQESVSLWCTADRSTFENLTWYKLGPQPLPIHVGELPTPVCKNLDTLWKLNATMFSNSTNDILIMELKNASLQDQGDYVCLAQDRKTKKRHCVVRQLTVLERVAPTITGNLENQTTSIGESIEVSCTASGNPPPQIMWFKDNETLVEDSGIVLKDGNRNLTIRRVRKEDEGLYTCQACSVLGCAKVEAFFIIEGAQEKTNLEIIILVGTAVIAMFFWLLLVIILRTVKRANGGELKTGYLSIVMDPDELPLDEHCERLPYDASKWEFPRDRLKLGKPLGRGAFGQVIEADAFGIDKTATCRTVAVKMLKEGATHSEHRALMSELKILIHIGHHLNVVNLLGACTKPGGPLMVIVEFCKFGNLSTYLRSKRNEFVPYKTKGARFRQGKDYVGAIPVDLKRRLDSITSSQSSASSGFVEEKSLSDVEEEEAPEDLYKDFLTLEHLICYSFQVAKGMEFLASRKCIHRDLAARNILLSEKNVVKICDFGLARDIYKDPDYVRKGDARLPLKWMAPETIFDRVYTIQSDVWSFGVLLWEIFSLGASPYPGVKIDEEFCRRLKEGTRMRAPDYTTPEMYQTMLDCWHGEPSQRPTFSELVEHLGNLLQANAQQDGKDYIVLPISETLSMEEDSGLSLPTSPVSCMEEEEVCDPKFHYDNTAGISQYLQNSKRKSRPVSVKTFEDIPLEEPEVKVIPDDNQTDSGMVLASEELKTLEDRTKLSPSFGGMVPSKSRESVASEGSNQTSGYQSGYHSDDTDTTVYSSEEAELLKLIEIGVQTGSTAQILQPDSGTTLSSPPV
pKi: −log10 of the molar value.
ASSAY_ENDPOINT: pKi

• C[C@@H](c1ccc2ncccc2c1)c1nnc2sc(-c3cnn(C)c3)nn12 = < 5.40

====

Target: Tyrosine-protein kinase JAK2 (Homo sapiens)
Sequence (O60674 whole entry): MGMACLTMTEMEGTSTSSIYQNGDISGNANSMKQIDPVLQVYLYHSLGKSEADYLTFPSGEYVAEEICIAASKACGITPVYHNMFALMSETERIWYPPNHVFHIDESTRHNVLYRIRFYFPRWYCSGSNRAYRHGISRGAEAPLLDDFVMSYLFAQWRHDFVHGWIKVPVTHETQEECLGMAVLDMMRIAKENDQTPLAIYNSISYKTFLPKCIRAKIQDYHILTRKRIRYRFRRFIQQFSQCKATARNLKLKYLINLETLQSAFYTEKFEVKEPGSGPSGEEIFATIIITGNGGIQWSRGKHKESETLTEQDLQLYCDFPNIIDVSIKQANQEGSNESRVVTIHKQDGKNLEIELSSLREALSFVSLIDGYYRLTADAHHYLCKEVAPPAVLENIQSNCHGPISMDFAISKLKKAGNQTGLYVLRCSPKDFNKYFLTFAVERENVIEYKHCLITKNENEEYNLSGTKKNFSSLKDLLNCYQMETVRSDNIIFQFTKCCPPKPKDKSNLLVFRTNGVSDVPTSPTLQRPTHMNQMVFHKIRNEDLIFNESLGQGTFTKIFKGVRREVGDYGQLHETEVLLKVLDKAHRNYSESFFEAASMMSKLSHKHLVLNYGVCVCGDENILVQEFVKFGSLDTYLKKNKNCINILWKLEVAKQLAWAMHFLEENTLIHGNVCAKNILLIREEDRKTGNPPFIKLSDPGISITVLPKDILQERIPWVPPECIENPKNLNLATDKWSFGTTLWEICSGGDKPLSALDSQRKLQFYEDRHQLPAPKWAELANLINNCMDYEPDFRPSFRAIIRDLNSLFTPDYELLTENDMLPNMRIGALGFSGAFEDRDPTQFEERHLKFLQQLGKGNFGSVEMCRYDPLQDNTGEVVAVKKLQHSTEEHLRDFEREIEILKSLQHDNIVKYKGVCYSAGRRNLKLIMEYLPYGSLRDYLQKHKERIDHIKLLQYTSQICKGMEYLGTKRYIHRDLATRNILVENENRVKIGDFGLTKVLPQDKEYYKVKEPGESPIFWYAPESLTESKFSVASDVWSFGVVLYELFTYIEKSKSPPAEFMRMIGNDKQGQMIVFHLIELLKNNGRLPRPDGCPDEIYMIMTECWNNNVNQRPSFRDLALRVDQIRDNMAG
ASSAY_ENDPOINT: Ki

- C[C@@H](c1ccc2ncccc2c1)c1nnc2sc(-c3cnn(C)c3)nn12: > 4 µM

====

Molecular target: Receptor-type tyrosine-protein kinase FLT3 (Homo sapiens, UniProt P36888)
Sequence (P36888 whole entry): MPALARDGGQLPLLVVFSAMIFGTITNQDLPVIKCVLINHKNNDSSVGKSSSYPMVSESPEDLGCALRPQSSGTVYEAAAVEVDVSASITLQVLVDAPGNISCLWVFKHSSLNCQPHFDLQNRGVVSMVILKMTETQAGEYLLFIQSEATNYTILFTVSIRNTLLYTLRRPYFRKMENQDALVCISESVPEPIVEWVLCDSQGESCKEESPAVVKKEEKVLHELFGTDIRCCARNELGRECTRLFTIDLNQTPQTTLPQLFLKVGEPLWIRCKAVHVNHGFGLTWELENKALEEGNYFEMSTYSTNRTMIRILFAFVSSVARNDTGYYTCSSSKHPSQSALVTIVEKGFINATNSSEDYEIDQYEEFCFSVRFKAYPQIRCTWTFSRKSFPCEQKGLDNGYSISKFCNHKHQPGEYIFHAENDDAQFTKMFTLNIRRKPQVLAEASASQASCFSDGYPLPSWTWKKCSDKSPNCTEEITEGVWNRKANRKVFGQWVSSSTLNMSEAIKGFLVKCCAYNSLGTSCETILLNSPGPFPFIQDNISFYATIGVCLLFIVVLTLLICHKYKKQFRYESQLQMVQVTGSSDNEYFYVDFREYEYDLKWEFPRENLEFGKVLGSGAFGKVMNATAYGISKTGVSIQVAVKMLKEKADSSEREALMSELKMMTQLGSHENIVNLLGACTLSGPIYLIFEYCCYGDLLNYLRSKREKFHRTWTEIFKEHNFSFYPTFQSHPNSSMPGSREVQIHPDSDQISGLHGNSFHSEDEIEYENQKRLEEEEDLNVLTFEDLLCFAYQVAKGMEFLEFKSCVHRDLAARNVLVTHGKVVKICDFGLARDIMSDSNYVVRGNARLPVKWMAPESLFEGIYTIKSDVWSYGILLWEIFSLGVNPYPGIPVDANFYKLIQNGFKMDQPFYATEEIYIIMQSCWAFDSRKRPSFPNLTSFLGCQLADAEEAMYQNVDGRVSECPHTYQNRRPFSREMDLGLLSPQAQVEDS
ASSAY_ENDPOINT: Ki

• C[C@@H](c1ccc2ncccc2c1)c1nnc2sc(-c3cnn(C)c3)nn12 = > 4 µM

====

Test: Clearance in mouse at 0.8 mg/kg, iv
Assay type: ADME, organism-based
Details: in vivo
ASSAY_ENDPOINT: clearance (mL/min/kg)

- Cn1cc(Nc2nn3c(C(F)(F)c4ccc5ncccc5c4)nnc3s2)cn1: 21

====

Test: Volume of distribution at steady state in mouse at 0.8 mg/kg, iv
Assay type: ADME, organism-based
Conditions: in vivo, read-out: Vdss
ASSAY_ENDPOINT: Vd (L/kg)

- Cn1cc(Nc2nn3c(C(F)(F)c4ccc5ncccc5c4)nnc3s2)cn1: 1

====

Test: Unbound intrinsic clearance in mouse hepatocytes assessed per million cells
Assay type: ADME, cell-based, Hepatocyte
ASSAY_ENDPOINT: CL free (µL/min)

• CC(c1ccc2ncccc2c1)c1nnc2sc(-c3cnn(C)c3)nn12 (racemic) = 7.4
• C[C@H](c1ccc2ncccc2c1)c1nnc2sc(-c3cnn(C)c3)nn12 = 7
• C[C@@H](c1ccc2ncccc2c1)c1nnc2sc(-c3cnn(C)c3)nn12 = 7.2
• Cn1cc(-c2nn3c(Cc4ccc5ncccc5c4)nnc3s2)cn1 = 6.2

====

Test: Cmax in dog at 12 mg/kg, po
Type: ADME, organism-based, Canis lupus familiaris
Design: route oral, dose 12 mg/kg
Conditions: in vivo
ASSAY_ENDPOINT: Cmax (ng/mL)

• Cn1cc(Nc2nn3c(C(F)(F)c4ccc5ncccc5c4)nnc3s2)cn1 = 1300
